- Assay target: UniProt Q12851
- Sequence (Q12851 whole entry): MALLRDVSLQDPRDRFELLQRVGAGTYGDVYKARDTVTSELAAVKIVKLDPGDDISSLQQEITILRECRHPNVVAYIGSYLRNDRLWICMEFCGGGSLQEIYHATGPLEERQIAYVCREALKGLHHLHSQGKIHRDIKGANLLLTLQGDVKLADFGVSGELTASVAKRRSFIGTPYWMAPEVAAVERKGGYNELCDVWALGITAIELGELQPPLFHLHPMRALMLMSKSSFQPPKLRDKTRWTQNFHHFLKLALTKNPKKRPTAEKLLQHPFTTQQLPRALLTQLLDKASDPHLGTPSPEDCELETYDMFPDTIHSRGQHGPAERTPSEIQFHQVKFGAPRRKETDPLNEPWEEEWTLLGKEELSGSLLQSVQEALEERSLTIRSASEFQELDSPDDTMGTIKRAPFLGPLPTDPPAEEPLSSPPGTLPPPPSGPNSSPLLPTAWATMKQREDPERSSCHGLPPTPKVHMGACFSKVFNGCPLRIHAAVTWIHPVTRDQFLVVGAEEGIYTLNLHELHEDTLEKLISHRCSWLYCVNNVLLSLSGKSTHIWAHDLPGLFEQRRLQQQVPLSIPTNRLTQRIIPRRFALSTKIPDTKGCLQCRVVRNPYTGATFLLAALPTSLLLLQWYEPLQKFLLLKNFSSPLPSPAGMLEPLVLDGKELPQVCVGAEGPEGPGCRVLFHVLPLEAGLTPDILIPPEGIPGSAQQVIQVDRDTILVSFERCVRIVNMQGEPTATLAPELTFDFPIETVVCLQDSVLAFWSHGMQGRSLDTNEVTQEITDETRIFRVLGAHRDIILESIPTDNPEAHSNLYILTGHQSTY
- Procedure summary: Inhibition of GCK kinase activity in vitro (ADP-Glo)
- Type: biochemical
- Condition context: ADP-Glo; read-out: Activity/IC50, nM GCK
Measurement type: IC50

1) Cn1cccc1-c1cc2cc(NC(=O)[C@@H]3C[C@@H]3F)ncc2c(N)c1F [DD02001A cis] ... > 10 nM
